# system.name: tetrameric LDH-5 (Homo sapiens, UniProt P00338)
# experimental.details: nanoDSF thermal shift of LDH-5 with peptide
# Type: binding
# measurement.parameters: read-out: EC50 (destabilization of tetrameric LDH, ΔTm vs peptide concentration)
readout.name: pEC50
The meaning of pEC50 here: minus log10 of the concentration in molar units.

Data request, read-out pEC50, for Ac-GEMMDLQHGSLFLQTP-NH2 [GP-16]
3.58

---

# system.name: dimeric LDH-Htr
# experimental.details: MST, peptide binding to LDH-Htr
# Parameters: species or system human
# measurement.parameters: 1.5 s MST on time, n = 3, labeled LDH-Htr 100 nM, 50 mM sodium phosphate pH 7.6, 100 mM NaCl, 0.01% Tween-20, LP-22 value 'estimated'
readout.name: pKd
The meaning of pKd here: minus log10 of the concentration in molar units.

Recall the recorded pKd for Ac-GEMMDLQHGSLFLQTP-NH2 [GP-16] with dimeric LDH-Htr and state it.
3.62
